TARGET_UNDER_TEST: Cdc25C (Homo sapiens, UniProt P30307)
Sequence (P30307 1-473): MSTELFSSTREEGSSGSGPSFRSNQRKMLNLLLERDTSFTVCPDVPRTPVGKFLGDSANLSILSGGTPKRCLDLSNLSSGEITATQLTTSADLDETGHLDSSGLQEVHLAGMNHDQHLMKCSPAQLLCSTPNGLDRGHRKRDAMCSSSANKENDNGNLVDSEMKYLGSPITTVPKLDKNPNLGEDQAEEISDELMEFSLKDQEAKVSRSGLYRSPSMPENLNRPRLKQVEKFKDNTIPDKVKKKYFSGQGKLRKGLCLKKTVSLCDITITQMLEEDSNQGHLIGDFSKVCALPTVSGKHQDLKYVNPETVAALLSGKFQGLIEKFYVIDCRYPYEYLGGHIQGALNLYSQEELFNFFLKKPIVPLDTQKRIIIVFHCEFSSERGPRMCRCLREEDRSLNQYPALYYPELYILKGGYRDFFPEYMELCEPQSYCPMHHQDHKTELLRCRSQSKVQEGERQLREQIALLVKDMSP
TEST_METHOD_NOTES: Cdc25C phosphatase inhibition screen at 50 μM
Assay type: biochemical
COND: read-out: Percent Inhibition at 50 uM compound, Cdc25 C
Each entry below carries its reported inhibition at 50 µM.
Use % as the unit, but write only the number.

A selection of reference data follows.
[[record]]
compound_string = "CC(C)=CCc1cccc2c(C3=C(O)C(=O)C=C(O)C3=O)c[nH]c12"
unit_annotation = "%"
recorded_number = 84

[[record]]
compound_string = "O=C1C=C(O)C(=O)C(c2c[nH]c3c(Cl)cccc23)=C1O"
unit_annotation = "%"
recorded_number = 54

[[record]]
compound_string = "CCCc1cccc2c(C3=C(O)C(=O)C=C(O)C3=O)c[nH]c12"
unit_annotation = "%"
recorded_number = 79

[[record]]
compound_string = "Cc1[nH]c2c(C)cccc2c1C1=C(O)C(=O)C=C(O)C1=O"
unit_annotation = "%"
recorded_number = 0

[[record]]
compound_string = "CC(C)=CCCC(C)=CCCC(C)=CCc1cccc2c(C3=C(O)C(=O)C=C(O)C3=O)c[nH]c12"
unit_annotation = "%"
recorded_number = 85


Task: // query inhibition at 50 µM value for entry CC1(c2[nH]c3ccccc3c2C2=C(O)C(=O)C=C(O)C2=O)CCCCC1
Output: 22

Task: O=C1C=C(O)C(=O)C(c2c[nH]c3ccccc23)=C1O ?
Output: 69

Data provenance: patent US7057052B2
